I'd be grateful if you could share measured log10 TGI for these entries.
Test system: SF-295 CNS
Experiment: NCI tumour cell line growth inhibition, 48 h
# log10 transformed; quantity=TGI; unit=µM

IN: Need log10 TGI, item COc1ccc(NC2Oc3cc4c(cc3C(c3cc(OC)c(O)c(OC)c3)C2C)OCO4)cc1 (configuration not stated)
OUT: 1.78

IN: Value lookup for log10 TGI; key = COc1cc2ccnc3c2c(c1O)N(C)C=C3
OUT: 1.46

IN: Bench note: what log10 TGI did CCCCCCCCCCCCCCCCCCOCC(O)COP(=O)(O)OCC1OC(n2cc(F)c(=O)[nH]c2=O)CC1O (configuration not stated) show?
OUT: 1.28

IN: I'd like to know its log10 TGI. The compound in question is O=c1oc2ccccc2c(O)c1/C=N\c1nc(-c2ccccc2)cs1
OUT: 1.84

IN: Give its log10 TGI value. Item: CC(C)(C)N1Cc2ccccc2/C(=C/Sc2ccccc2)C1=O
OUT: 1.53

IN: Requested field: log10 TGI. Item: COc1cc(-c2nc3ccc(C)cc3[nH]2)ccc1OCC(=O)N=Nc1c(O)[nH]c2ccccc12
OUT: 0.58

IN: Return reported log10 TGI; argument: COc1cc(C2C3=C(COC3=O)OC(C)(C)Oc3cc4c(cc32)OCO4)cc(OC)c1OC (configuration not stated)
OUT: -0.27

IN: # input compound: CCCCCCCCCCCCCCCCNc1nc(=O)n(C2CC(O)C(CO)O2)cc1F (configuration not stated) ; wanted: its log10 TGI
OUT: 1.48

IN: Endpoint output: log10 TGI of COc1c/c(=C2/C=c3ccccc3=N2)[nH]/c1=C/c1[nH]c(C)cc1C . Value?
OUT: -0.20

IN: // query log10 TGI value for entry COC(=O)CCC/C=C\C[C@H]1C=CC(=O)/C1=C/C[C@@H](O)CCc1cccc(C(F)(F)F)c1
OUT: 0.72

====

Tested on: HOP-62 NSCLC
Experiment: NCI tumour cell line growth inhibition, 48 h
Field: TGI. Provide a value for each of the molecules that follow.

IN: I would be grateful if you could share the reported TGI for CCN(CC)CCCNc1ccc2nnn3c4ccc(O)cc4c(=O)c1c23 .
OUT: 22.6 µM

IN: If you can, please state the reported TGI value of O=c1oc2ccccc2c(O)c1/C=N\c1nc(-c2ccccc2)cs1 .
OUT: 64.4 µM

IN: Query (molecule): CCOC(=O)C(O)(NC(C)=O)C(F)(F)F (stereo unspecified) ; field requested: TGI
OUT: > 100 µM

IN: # input molecule: COc1cc(/C=C/c2cc(C(F)(F)F)[nH]c(=O)n2)ccc1OCc1ccccc1F ; wanted: its TGI
OUT: 25 µM

IN: What does the record list as TGI for COc1ccc(CNc2nc(NCc3ccc(OC)cc3)nc(N3CCOCC3)n2)cc1 ?
OUT: > 100 µM

IN: I'd like to know its TGI. The molecule in question is CSCCC(NC(=O)OC(C)(C)C)C(=O)NCCNc1ccc(NCCNC(=O)C(CCSC)NC(=O)OC(C)(C)C)c2c1C(=O)c1ccccc1C2=O (stereo unspecified)
OUT: 8.2 µM

IN: Please look up its TGI: COC(=O)c1c(-c2ccccc2)cc2c3cc(-c4ccccc4)c(C(=O)OC)n3c3ccccc3n12
OUT: > 100 µM

IN: What value of TGI has been reported for the following molecule? O=C(NNC(=S)Nc1ccccc1)c1csc(NC(=S)NC2CCCCC2)n1
OUT: > 100 µM

IN: Record request: TGI value, item CC1CC(c2ccccc2)=Nc2ccccc2S1(=O)=O (stereo unspecified)
OUT: 39.8 µM

IN: # TGI lookup, item COc1ccc(/C=C/c2cc(OC)c(OC)c(OC)c2)cc1NC(=O)/C=C/c1ccc(F)cc1
OUT: > 100 µM

IN: Please look up its TGI: COC(=O)C1(C(=O)OC)N=C(C)OC1C(C)C (stereo unspecified)
OUT: > 100 µM

IN: Report TGI for CC(C)(C)OC(=O)N1C(OP(=O)(Oc2ccccc2)Oc2ccccc2)=COc2cccnc21 please.
OUT: > 100 µM

IN: So what's the measured TGI for this one? COc1cc(OC)c(/C=C/c2ccc3ccccc3[n+]2C)c(OC)c1
OUT: 12.1 µM

IN: Fill in the blank: the reported TGI of NC(CCCCNC(=O)OCc1ccccc1)C(=O)NC(CCCCNC(=O)OCc1ccccc1)C(=O)ON1C(=O)CCC1=O (stereo unspecified) is ____.
OUT: > 100 µM

IN: Item under review: N#CC(C#N)=C(N)/C(C#N)=C\c1ccnc2ccccc12 . Reported TGI?
OUT: 56.5 µM

IN: Reported TGI for C=CC(=O)N1CCCC(n2nc(-c3ccc(Oc4ccccc4)cc3)c3c(N)ncnc32)C1 (stereo unspecified) : what is it?
OUT: 26.1 µM

IN: Give the measured TGI of O=c1cc(-c2ccccc2)[nH]c2cc(Cl)cc(Cl)c12 .
OUT: > 100 µM

IN: Item O=[N+]([O-])c1c(/C=N/Nc2ccccc2)oc(-c2ccc3c(c2)OCO3)c1-c1ccc2c(c1)OCO2 has what recorded TGI?
OUT: > 100 µM

IN: What does the record list as TGI for Cc1ccc(O)c(C2=NNC(c3cccc(Br)c3)C2)c1 (stereo unspecified) ?
OUT: > 100 µM

IN: Using the record for COc1cc(/C=C2/SC(c3ccccc3)N(c3cccc([N+](=O)[O-])c3)C2=O)cc(OC)c1OC (stereo unspecified) , report its TGI.
OUT: > 100 µM

IN: Look up TGI for this molecule: Clc1nc(Oc2ccccc2)nc(-c2cn(-c3ccccc3)c3ccccc23)n1
OUT: 29.4 µM

IN: Need TGI, item CCOC(=O)c1sc2c(c1OC(=O)c1ccccc1)c(=O)n(-c1ccccc1)c(=S)n2-c1ccccc1
OUT: 54.4 µM

IN: Return reported TGI; argument: CC1(C)C(=O)N(c2ccccc2)C(=O)N1c1nc2ccccc2[nH]1
OUT: > 100 µM

IN: Which TGI value is on record for N#CCCN(CCCN(C(=O)Nc1ccccc1)c1ccccc1)C(=O)Nc1ccccc1 ?
OUT: > 100 µM

IN: Value lookup for TGI; key = CC(C)=CC(C(O)c1ccccc1)S(=O)(=O)c1nccn1C (stereo unspecified)
OUT: > 100 µM

IN: Need TGI of CN1CCN(CCSC2Cc3cc(Cl)ccc3Sc3ccccc32)CC1 (stereo unspecified) , thanks.
OUT: 26.7 µM

IN: # TGI lookup, item CCCCNc1nc(NC(C)(C)C)nc(NC(C)(C)C)n1
OUT: > 100 µM

IN: // returns reported TGI for input CCOC(=O)C(C)(C)Oc1ccc2c(=O)cc(-c3ccc(Cl)cc3)oc2c1
OUT: > 100 µM

IN: # lookup: TGI of O=C1C=CC(=O)c2ncccc21
OUT: 28.6 µM

IN: Entry under review: C=CCNC(=S)N1CC(C)C(=O)Nc2ccccc21 (stereo unspecified) . Reported TGI?
OUT: > 100 µM

IN: # input molecule: COC1/C=C/C(C)C(C(C)C(OC)C(C)CCC(=O)C(C)C(CCC(=O)O)OC)OC(=O)/C=C/C=C(\C)CC(OC)CC2=CC(=O)O[C@@H](C(C)C(OC)CC(OC)/C=C/C(C)C(OC)C1)[C@H]2O (stereo partly specified) ; wanted: its TGI
OUT: > 5 µM

IN: // lookup TGI for CC[N+](C)(CC)CCN1C(=O)c2ccccc2S1(=O)=O
OUT: > 100 µM

IN: I'd like to know its TGI. The molecule in question is O=C(O)c1ccc(Nc2nc3cc(C(F)(F)F)ccc3nc2C(=O)O)cc1
OUT: > 100 µM

IN: Given the entry COc1ccc(-c2c(C#N)c(-c3ccccc3)n(NS(=O)(=O)c3ccccc3)c(=O)c2C#N)cc1 , report its measured TGI.
OUT: > 100 µM

IN: Item under review: CN(C(=O)c1ccc(Cl)s1)C(=S)N(C)C(=O)c1ccc(Cl)s1 . Reported TGI?
OUT: > 10 µM

IN: I'd like to know its TGI. The molecule in question is CCCC(=O)c1c(NOC2OC(COC(C)=O)C(OC(C)=O)C(OC(C)=O)C2OC(C)=O)nc(OC)n(C)c1=O (stereo unspecified)
OUT: > 100 µM

IN: Look up TGI: CN1CCN(Cc2ccc(NC(=O)c3cncc(C#Cc4cnc(N)c5ccc(F)cc45)c3)cc2C(F)(F)F)CC1
OUT: 7.24 µM

IN: Request the reported TGI associated with CN1CC(c2ccccc2)N(CCCCN2CC(c3ccccc3)N(C)CC2c2ccccc2)CC1c1ccccc1 (stereo unspecified)
OUT: > 100 µM

IN: Sample C=CCc1cc2cccc(OC)c2oc1=O — what was its TGI?
OUT: > 100 µM

IN: Recorded TGI for N#CCCc1nc2ccc(Br)cc2c(=O)n1CCO , please?
OUT: > 100 µM

IN: I'd like to know its TGI. The molecule in question is NC(=O)COc1ccccc1
OUT: > 100 µM
